SYSTEM UNDER TEST: human Claudin-6 (CLDN6) (human) (UniProt P56747)
EXPERIMENTAL PROTOCOL: FACS titration of labelled mAb on ARK2 cells (endogenous CLDN6+)
METRIC: EC50 (nM)
Your answer is read as nM, so omit the unit and give the number.

Prompt line: I'd like to know its EC50. The binder in question is AB10 (antibody, V domains shown, full-length IgG (ExpiCHO)) VH: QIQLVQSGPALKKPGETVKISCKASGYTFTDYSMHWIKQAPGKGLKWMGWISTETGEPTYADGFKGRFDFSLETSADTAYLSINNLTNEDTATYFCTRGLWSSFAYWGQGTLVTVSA VL: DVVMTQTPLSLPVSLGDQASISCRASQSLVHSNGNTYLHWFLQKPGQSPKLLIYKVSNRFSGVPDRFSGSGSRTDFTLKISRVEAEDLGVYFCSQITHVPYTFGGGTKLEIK
Response line: 2140

Prompt line: I'd like to know its EC50. The binder in question is AB9 (antibody, V domains shown) VH: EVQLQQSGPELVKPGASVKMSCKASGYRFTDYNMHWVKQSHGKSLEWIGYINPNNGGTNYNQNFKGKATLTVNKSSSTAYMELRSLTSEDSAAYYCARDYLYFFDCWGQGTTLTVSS VL: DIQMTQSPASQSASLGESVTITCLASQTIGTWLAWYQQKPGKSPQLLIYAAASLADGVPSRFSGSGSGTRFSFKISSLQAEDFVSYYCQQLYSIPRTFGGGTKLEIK
Response line: 1140

Prompt line: I'd like to know its EC50. The binder in question is AB2 (antibody, V domains shown, full-length IgG (ExpiCHO)) VH: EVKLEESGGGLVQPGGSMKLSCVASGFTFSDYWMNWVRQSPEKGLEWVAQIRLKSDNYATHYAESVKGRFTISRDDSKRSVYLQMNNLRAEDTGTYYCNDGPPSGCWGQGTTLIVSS VL: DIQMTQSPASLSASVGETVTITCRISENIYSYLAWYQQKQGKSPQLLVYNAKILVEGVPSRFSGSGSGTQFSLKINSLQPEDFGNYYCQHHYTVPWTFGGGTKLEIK
Response line: 1360
